Attribution: patent US20250074920A1

- Tested on: DDR1
- experimentNotes: KINOMEscan kinase binding assay
- setupConditions: at 1 μM
measuredAttribute: % Ctrl (%)
Your answer is read as %, so omit the unit and give the number.

Please review the following examples before continuing.
# inputSmiles, subjectOfTest, unitInfo, % Ctrl
rows = [
    ("C[C@@H]1COCc2nn(C)cc2-c2cc(Cl)c3c(c2)/C(=C/c2[nH]ccc2C(=O)N1)C(=O)N3", "DDR1", "%", 20),
    ("Cc1cc2c([nH]1)/C=C1\\C(=O)Nc3ccc(cc31)-c1c(nn(C)c1C)COCCN(C)C2=O", "DDR1", "%", 100),
    ("Cc1cc2c([nH]1)/C=C1\\C(=O)Nc3ccc(cc31)-c1c(nn(C)c1C)OCCCN(C)C2=O", "DDR1", "%", 97),
    ("Cc1cc2c([nH]1)/C=C1\\C(=O)Nc3c(Cl)cc(cc31)-c1cn(C)nc1COC[C@@H](C)NC2=O", "DDR1", "%", 98),
]

Turning now to a further record.
Lookup: Find the recorded % Ctrl belonging to "Cc1cc2c([nH]1)/C=C1\C(=O)Nc3c(Cl)cc(cc31)-c1cn(C)nc1COC[C@@H](C)N(C)C2=O" and report it.
Found: 93

###

- System: KIT(D816V)
- experimentNotes: KINOMEscan kinase binding assay
- setupConditions: at 1 μM
measuredAttribute: % Ctrl (%)
Your answer is read as %, so omit the unit and give the number.

Please review the following examples before continuing.
# molecule, unitInfo, % Ctrl
measured = [
    ("C[C@@H]1COCc2nn(C)cc2-c2cc(Cl)c3c(c2)/C(=C/c2[nH]ccc2C(=O)N1)C(=O)N3 [Cpd. 4]", "%", 100),
    ("Cc1cc2c([nH]1)/C=C1\\C(=O)Nc3c(Cl)cc(cc31)-c1cn(C)nc1COC[C@@H](C)NC2=O [Cpd. 3]", "%", 97),
    ("Cc1cc2c([nH]1)/C=C1\\C(=O)Nc3ccc(cc31)-c1c(nn(C)c1C)COCCN(C)C2=O [Cpd. 2]", "%", 60),
    ("Cc1cc2c([nH]1)/C=C1\\C(=O)Nc3ccc(cc31)-c1c(nn(C)c1C)OCCCN(C)C2=O [Cpd. 1]", "%", 97),
]

Lookup: Find the recorded % Ctrl belonging to Cc1cc2c([nH]1)/C=C1\C(=O)Nc3c(Cl)cc(cc31)-c1cn(C)nc1COC[C@@H](C)N(C)C2=O [Cpd. 5] and report it.
Found: 100

###

List of % Ctrl values.
- Test system: BLK
- experimentNotes: KINOMEscan kinase binding assay
- setupConditions: at 1 μM

Please review the following examples before continuing.
# molecule, subjectOfTest, % Ctrl
data = [
    ("Cc1cc2c([nH]1)/C=C1\\C(=O)Nc3c(Cl)cc(cc31)-c1cn(C)nc1COC[C@@H](C)N(C)C2=O [Cpd. 5]", "BLK", "87%"),
    ("C[C@@H]1COCc2nn(C)cc2-c2cc(Cl)c3c(c2)/C(=C/c2[nH]ccc2C(=O)N1)C(=O)N3 [Cpd. 4]", "BLK", "100%"),
    ("Cc1cc2c([nH]1)/C=C1\\C(=O)Nc3ccc(cc31)-c1c(nn(C)c1C)COCCN(C)C2=O [Cpd. 2]", "BLK", "98%"),
]

Lookup: Find the recorded % Ctrl belonging to Cc1cc2c([nH]1)/C=C1\C(=O)Nc3ccc(cc31)-c1c(nn(C)c1C)OCCCN(C)C2=O [Cpd. 1] and report it.
Found: 87%

Lookup: Find the recorded % Ctrl belonging to Cc1cc2c([nH]1)/C=C1\C(=O)Nc3c(Cl)cc(cc31)-c1cn(C)nc1COC[C@@H](C)NC2=O [Cpd. 3] and report it.
Found: 92%
